target.under.test: 5-HT2A receptor (Homo sapiens)
Sequence (P28223 whole entry): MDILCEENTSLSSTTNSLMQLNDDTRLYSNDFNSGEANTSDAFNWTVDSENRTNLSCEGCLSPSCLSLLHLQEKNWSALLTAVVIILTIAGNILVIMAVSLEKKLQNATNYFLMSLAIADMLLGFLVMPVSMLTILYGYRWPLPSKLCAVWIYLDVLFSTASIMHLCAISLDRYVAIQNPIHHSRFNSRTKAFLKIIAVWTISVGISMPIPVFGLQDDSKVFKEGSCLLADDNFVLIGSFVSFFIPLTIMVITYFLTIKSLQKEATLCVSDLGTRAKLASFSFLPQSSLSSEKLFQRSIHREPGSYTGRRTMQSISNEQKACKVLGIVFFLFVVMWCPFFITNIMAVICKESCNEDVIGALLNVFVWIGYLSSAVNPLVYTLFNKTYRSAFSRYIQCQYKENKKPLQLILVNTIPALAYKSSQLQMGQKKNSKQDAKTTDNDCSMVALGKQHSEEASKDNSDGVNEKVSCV
method.summary: Calcium mobilization (Ca++ flux) assay, agonist mode, 5-HT2A
Assay type: cell-based
condition.context: 30 μM compound; relative to MAX control 0.1 μM serotonin
Assignment: determine reported 5-HT2A receptor, Ca++ Flux % activation @30 μM for the given compounds.
One number for each entry, in %.

compound="COc1cc(S(C)(=N)=O)c(OC)cc1CCNCc1cc(C)cc(Cl)c1 (single isomer, unassigned) [Compound 3]" quantitative_result=78
compound="COc1cc(S(C)(=N)=O)c(OC)cc1CCNCc1ccccc1OC (stereo not drawn)" quantitative_result=111

--- query ---
Ask: Form field: 5-HT2A receptor, Ca++ Flux % activation @30 μM recorded for COc1cc(S(C)(=N)=O)c(OC)cc1CCNCc1cc(C)cc(Cl)c1 (stereo not drawn) [Compound 1] with 5-HT2A receptor (Homo sapiens) (enter value)
Result: 102
